test: soluble on expression in E. coli; label from the status in PepcDB or PDB records
Endpoint name: soluble on expression in E. coli

Chain: MGSDKIHHHHHHMLLHIPNVLNAEQLRIVRERLDTAGDAWVDGRATAGYQGAPVKRNQQIAEHTPIARELGDVILASIERNPLFISSVLPNQVYPPLFNRYEGGMQFGSHVDGAVRVLPNGVKLRTDVSVTLFISDPADYDGGELVIEDTYGVQQVKLPAGDMIVYPATSLHQVTPVTRGVRVASFFWVQSLVRSDTQRAMLFDMDTAIQRLNATNADDAARRSLVGIYHNLLRTWSEP
Observed value: not soluble
//
Chain: ANKMALLIDGPNMLRKEFNVDLDKVRDALEQFGDIVVGRVYLNQYASDKLIEAIANQGFEPRISAGDVDVEMAVEGTELIFNKNIDTIVYMTRDADFLPAIRKAKERGKQIIVVGAEPGFSTAIQNIADHVIRVEEDFE
Observed value: not soluble

----------
experiment: soluble on expression in E. coli; label from the status in PepcDB or PDB records
Endpoint name: soluble on expression in E. coli

Sample answers from the record:
Chain: MKEEIIIAGFGGQGVLSMGKILAYSGLMEGKEVTWMPAYGPEQRGGTANVTVIVSDDKISSPILSKYDTAIILNQPSLEKFESRVKPGGILIYDGYGIINPPTRKDIKVYRIDAMDAANEMNNAKAFNMIVLGGLLKLRPIVTLENVVKGLKKTLPERHHHLIPMNEEAIKKGMELIRE
Endpoint name: soluble on expression in E. coli
Observed value: not soluble
//
Chain: SMDMKQQNFCVVELLPSDPEYNTVASKFNQTCSHFRIEKIERIQNPDLWNSYQAKKKTMDAKNGQTMNEKQLFHGTDAGSVPHVNRNGFNRSYAGKNAVAYGKGTYFAVNANYSANDTYSRPDANGRKHVYYVRVLTGIYTHGNHSLIVPPSKNPQNPTDLYDTVTDNVHHPSLFVAFYDYQAYPEYLITFRK
Endpoint name: soluble on expression in E. coli
Observed value: soluble
//
Chain: MKHSLPDLPYDYADLEPVISHEIMQLHHQKHHATYVNNLNQIEEKLHEAVSKGNVKEAIALQPALKFNGGGHINHSIFWTNLAKDGGEPSAELLTAIKSDFGSLDNLQKQLSASTVAVQGSGWGWLGYCPKGKILKVATCANQDPLEATTGLVPLFGIDVWEHAYYLQYKNVRPDYVNAIWKIANWKNVSERFAKAQQ
Endpoint name: soluble on expression in E. coli
Observed value: soluble
//
Chain: MTGNVLNYYAGGNTARGFHNLYEENLKGLDRLFILKGGPGTGKSSLIKAIGREWIEKGYDIEFLHCSSDNKSVDGVIIPKLKVGIVDGTSPHVIEPKMPGVVEEYINLGIAWDSDKLRKQKLEIERFVSEASKAFQSAYARFKEALVIHDEWEKIYIDNIDFNKANELTNQLIQKLFADKSGRQSLVKHRFLGAATPKGAVDFVPNLTEGLPHRYFIKGRPGSGKSTMLKKLAKAAEEKGFEVEVYHCGFDPNSLDMVIVRELGFAIFDSTAPHEYFPSREGDEIIDMYALIVTPGTDEKYAKEIRDVSIQYKAKMNEAMSFLAKAKSIRDKLERIYIAAMDFSIVDAYKEEIQKEFERIAATVIEKQQ
Endpoint name: soluble on expression in E. coli
Observed value: not soluble
//
Chain: MNDIPVQHNKNRCPSHPGDLLAEIIPATGKTKLEIAQMLGISRQHLYAILRAKKPISPSVSARLGKLFGDGAAVWLRMQAAYDAWHAEHETDVSQIPTLHVV
Endpoint name: soluble on expression in E. coli
Observed value: not soluble

Dear colleague, could you send me soluble on expression in E. coli for each of the items below? Thanks.
1. MGHHHHHHSHMKRSLSENSARSTADWAWEAVNPELAPVMKTVDTGQIPHSVSRPLRSQDSVFNSIQSNTGRSQGGWSYRDGNKNTSLKTWNKNDFKPQCKRTNLVANDGKNSCPVSSGAQQQKQLRIPEPPNLSRNKETELLRQTHSSKISGCTMRGLDKNSALQTLKPNFQQNQYKKQMLDDIPEDNTLKETSLYQLQFKEKASSLRIISAVIESMKYWREHAQKTVLLFEVLAVLDSAVTPGPYYSKTFLMRDGKNTLPCVFYEIDRELPRLIRGRVHRCVGNYDQKKNIFQCVSVRPASVSEQKTFQAFVKIADVEMQYYINVMNET
2. MSLNYSHAFHAGNHADVLKHIVLLALLDGLVRKETPFFVLDSHAGRGRYLLSAGESRNTREAESGVMRLIARPQRLEVIKRYVDVVQADNVSQTRAASTPMHISRYPGSSLLAAQVCRAQDRMVFCELHPKEAAALNALFVHDPRVRVHAGDGYAAVRAFLPPKVGTQRIGRGLVFIDPPYEAQDAEYPLVLGALRETLTRWPQAICAVWYPIKQRRRLQPFFRKAVGLPVRSVLIAELLVRLDDSPLRLNGSGMLLLNVPWQFDQLLAPALPVLKTQLGESGARTRLEWLKVPQEGHHHHHH
3. MSNGGKRPPEDDSKLPYYKLVVIGDGGVGKSSLTIQFFQKQFVDYYDPTIEDQYIQHCEIDGNWVIMDVLDTAGQEEFSAMREQYIRGGRGFLLVFSVTERKSFEEAHKLYNQVLRVKDRSEYPVLLVANKVDLINQRVVSEQEGRELAAQLKLMYIETSAKEPPVNVDAAFHELVRIVRSFPSDEGDHEASMASVPRTKKRKDKGKCLIS
4. SLINNLSTHSYWPNRGQLEVQGLTVKYTEAGRAVLNDISFSVDGGQSVGLLGRTGSGKSTLLSALLGLNYTEGEMFIDGVSSSSMPLEAWRKAFGVVPQKVFILTGTFRMNLDPYGRYSDDELWRVAEEVGLKSVIEQFPDKLDFELKDGGSVLSNGHKQLMCLARSILSKARILLLDEPSSYLDPITLQVLRKTLKQSFSGCTVILSEHKVEPLLECDSFLMIEKSSVKSYDSIQKLMNEMSDLKQAISPAD
5. MDMTYNMRNAMASSRNMEEPQYDMSTIDLTQNSMNTNYLMNGSVLTNAYNNDYIVNNRDKYTGDMISQLKIDQGIPTYSHTLPMNGTTLADTNDSLNIQGMMRTNMDTTGFDGYSHIMNYNNTQNTIQTNPITYRMEDYNNLNNDVMYINPTTGEKFSAEYVNNIPTNDSDNMLYSNNFKNNSINMNTLLNSHYNNLPYPMPIYESMNNPQMYMQHMNQKQTVNIPLQHGEKKSAARNISTVNKRRIKTKKFFPCC

Reply:
not soluble
not soluble
soluble
not soluble
not soluble

Parameter requested: soluble on expression in E. coli. Apply to each item below.
1. MAHHHHHHMKNCMMADQRGRSILQYQPIVGDEALEFSRGLAPSTFGFRYAAYMDRNHFLPSGRTAVKHIADPTLAYVMTRYRQCHDFVHIITGCGRSIEEELAVKIFEWKHTGLPLGLLSLLGGAPRLSAAQWAHIRLYWEWASRNAPSSRHGEPAVPMYLNVPWEDMLAKEYDEVVAYTGITPLPDFLEKRQKH
2. MGSDKIHHHHHHMLENRVKTKQIFIGGVAIGGDAPISTQSMTFSKTADIESTKNQIDRLKLAGADLVRVAVSNEKDALALKELKKVSPLPLIADIHFHYKFALIAAQSVDAIRINPGNIGSKEKIKAVVDACKEKNIPIRIGVNAGSLEKQFDQKYGPTPKGMVESALYNAKLLEDLDFTNFKISLKASDVIRTIEAYRMLRPLVIYPFHLGVTEAGNLFSSSIKSAMALGGLLMEGIGDTMRVSITGELENEIKVARAILRHSGRLKEGINWISCPTCGRIEANLVDMAIKVEKRLSHIKTPLDISVMGCVVNALGEAKHADMAIAFGNRSGLIIKEGKVIHKLAEKDLFETFVIEVENLAKEREKSLKD

Reply:
not soluble
not soluble
